Target: recombinant human β tryptase (Homo sapiens, UniProt Q15661)
Sequence (Q15661 31-275): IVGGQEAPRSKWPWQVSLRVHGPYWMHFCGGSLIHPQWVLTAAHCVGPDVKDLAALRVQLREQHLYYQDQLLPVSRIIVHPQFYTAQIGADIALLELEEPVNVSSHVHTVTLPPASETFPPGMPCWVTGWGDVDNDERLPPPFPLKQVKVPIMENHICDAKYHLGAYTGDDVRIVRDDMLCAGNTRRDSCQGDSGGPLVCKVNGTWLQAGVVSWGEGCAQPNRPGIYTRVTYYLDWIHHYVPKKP
Experiment: Tryptase chromogenic enzyme assay (S2366 substrate), Ki determination
Settings: room temperature, 0.5 mM S2366 substrate (2×Km), read at 405 nm; Ki=IC50/(1+[Substrate]/Km)
Structures can show the parent of a compound that is named as a salt.
Assay Readout: pKi
// pKi here means minus log10 of the molar concentration (mol/L)

Completed entries (count: 3):
INSERT INTO measurements (compound, numeric_value) VALUES
  ('NCc1cccc(C2CCN(C(=O)c3cccc(CCc4ccccc4O)c3)CC2)c1 [Example 98, hydrochloride]', 6.74),
  ('NCc1cccc(C2CCN(C(=O)c3ccc(CCc4ccccc4)s3)CC2)c1 [Example 13, hydrochloride]', 7.30),
  ('NCc1cccc(C2CCN(C(=O)c3ccc(Cl)c(Cl)c3)CC2)c1 [Example 36, trifluoroacetate]', 7.51);

Kindly consider the entry below.
Ask | Write pKi of NCc1cccc(C2CCN(C(=O)c3ccc(CCc4ccccc4)cc3)CC2)c1 [Example 97, hydrochloride] ; system used: recombinant human β tryptase (Homo sapiens, UniProt Q15661)
Reply | 6.35

* * *

Biological target: recombinant human β tryptase (Homo sapiens)
Assay: Tryptase chromogenic enzyme assay (S2366 substrate), Ki determination
Conditions: room temperature, 0.5 mM S2366 substrate (2×Km), read at 405 nm; Ki=IC50/(1+[Substrate]/Km)
Counter-ions that a name gives are not always drawn.
Item-by-item account of pKi
The scale used: pKi is minus the common logarithm of the concentration in molar units.

INSERT INTO results (compound, numeric_value) VALUES
  ('NCc1cccc(C2CCN(C(=O)c3cccc(C#Cc4ccc(F)cc4)c3)CC2)c1 [Example 83, trifluoroacetate]', 6.06),
  ('NCc1cccc(C2CCN(C(=O)c3cc4sc(Cl)cc4s3)CC2)c1 [Example 92, trifluoroacetate]', 6.72),
  ('NCc1cccc(C2CCN(C(=O)c3scc4c3CCCC4)CC2)c1', 6.54);

Ask | State its pKi: Cc1ccc(CN)cc1C1CCN(C(=O)c2cncc(CCc3ccccc3)c2)CC1 [Example 18, di-hydrochloride]
Reply | 7.16

Ask | Identify measured pKi associated with NCc1cccc(C2CCN(C(=O)c3ccc(Cl)cc3)CC2)c1 [Example 48, trifluoroacetate]
Reply | 6.41

Ask | Please give measured pKi of the following entry: NCc1cc(C2CCN(C(=O)c3cncc(CCc4ccccc4)c3)CC2)cs1 [Example 100, dihydrochloride]
Reply | 6.31

Ask | Complete the entry with pKi for N#CC1(c2cccc(CN)c2)CCN(C(=O)c2cncc(CCc3ccccc3)c2)CC1
Reply | 7.03

Ask | Specify reported pKi for the compound shown: NCc1cccc(C2CCN(C(=O)c3cccc(COc4ccccc4)c3)CC2)c1 [Example 15, hydrochloride]
Reply | 5.97

Ask | Quickly give me recorded pKi for NCc1cccc(C2CCN(C(=O)c3cccc(-c4nnc(-c5ccccc5Cl)o4)c3)CC2)c1 [Example 49, trifluoroacetate]
Reply | 6.41

Ask | Give me measured pKi, please, for this compound: NCc1cccc(C2CCN(C(=O)c3cccc(-c4nnc(-c5ccccc5)o4)c3)CC2)c1 [Example 19, hydrochloride]
Reply | 6.74
